z-score values for the sequences below.
- assay.text: Components of the Cytosolic LPS Sensing Pathway: Gene Identification via Genome-wide siRNA Screen
- condition.label: RAW264.7 macrophages, IL-1a HTRF, actives lie on both sides, screened at 100 nM (by protocol), cells primed 5 h with Pam3CSK4 first
Screen size: about 53,000 sequences; about 3,700 (7%) were called active. Shown is part of a subset that was picked to be rich in actives.

Examples with their reported z-score follow.
1. GGUGCCGCACACAAACAAUTT against Hipk2
-2.02 (active)
2. GCGAUUAAGUCUGAAUUGUTT against Cd93
0.425 (inactive)
3. GCACUCGAAUUUCUUUACUTT against Slc23a2
2.22 (active)
4. GUAUUAUAGACACCUUGCATT against Phip
-0.835 (inactive)
5. GGAUCUCUAUAGCAUCGUGTT against Col18a1
0.249 (inactive)
6. CCAUAGCUCUGGAAUGGUGTT against Kcnt1
-2.59 (active)
7. GCCUUCAAGCCAAAGAUAGTT against Lin54
-0.582 (inactive)
8. GGACUGAACCGUUUUAAAGTT against Fmo3
-0.317 (inactive)

# query: z-score of entry CCCUAUUGUCAAUAUUCUATT against Nr1h5
0.492 (inactive)

# query: z-score of entry GGAGAAAAAUCCUACCGACTT against Zmym5
0.56 (inactive)

# query: z-score of entry GGGAAUGACAGAAAUAUAATT against Golm1
0.923 (inactive)

# query: z-score of entry GGUCAAUGUGAUUGAGGAUTT against Acap1
0.869 (inactive)

====

- assay.text: Components of the Cytosolic LPS Sensing Pathway: Gene Identification via Genome-wide siRNA Screen
- condition.label: RAW264.7 macrophages, IL-1a HTRF, actives lie on both sides, screened at 100 nM (by protocol), cells primed 5 h with Pam3CSK4 first
The campaign covered roughly 53,000 sequences. About 3,700 (7%) were called active.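 The calls were made as follows: active = gene knockdowns whose robust z-score for IL-1 alpha signal is at least 2 or at most -2, so actives lie on both sides; inactive = the rest.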 Shown is part of a subset that was picked to be rich in actives.
Response enum: active, inactive

These recorded examples may help you get a feel for the data.
1. CCACAUACUCUAAUGAAGUTT against Casp1
inactive
2. GGACACUGUACUCAAACCUTT against Cntnap5b
active
3. CCCUGUUACGAAGUUUAACTT against Slc17a7
inactive

Each sequence tested received a call. Report the one for GCUAUUUUCGUCACUUUCUTT against Tssk1 .
inactive

Each sequence tested received a call. Report the one for GGUAUGGUUUCUAUAACAATT against Arsj .
inactive

Each sequence tested received a call. Report the one for CCAACUAAGUGAAAUUCCATT against Aspn .
inactive

Each sequence tested received a call. Report the one for GGUGAUCUUAGAUUUGAUUTT against Qsox2 .
inactive

Each sequence tested received a call. Report the one for GGGUGAUAAAAUUCAGAUUTT against Gpr88 .
active

Each sequence tested received a call. Report the one for GGAAGUUAUUGCCAGCGAGTT against Fbxo5 .
inactive

Each sequence tested received a call. Report the one for GGCUGGUUACCUGCAUAAGTT against Sh3bp2 .
inactive

Each sequence tested received a call. Report the one for GGAAACCUGAUUGCAUAUGTT against Nup37 .
inactive

Each sequence tested received a call. Report the one for CCAAGAUGCACAGUGAUAATT against Pknox2 .
inactive

Each sequence tested received a call. Report the one for GGACGAGGAGUACGAGCAATT against Nfkbia .
active

Each sequence tested received a call. Report the one for GCCACUUGUGCUAAGCUGUTT against Ager .
inactive

Each sequence tested received a call. Report the one for GGAAGACCCUAAUCUAGUCTT against Cox5b .
active

Each sequence tested received a call. Report the one for GGAAAUAUUGAUGCUGCUGTT against Ttc39a .
inactive

Each sequence tested received a call. Report the one for GGCGUAUUUGUCAUUUCUUTT against Dis3l .
inactive

====

z-score values for the sequences below.
- assay.text: Components of the Cytosolic LPS Sensing Pathway: Gene Identification via Genome-wide siRNA Screen
- condition.label: RAW264.7 macrophages, IL-1a HTRF, actives lie on both sides, screened at 100 nM (by protocol), cells primed 5 h with Pam3CSK4 first
Screen size: about 53,000 sequences; about 3,700 (7%) were called active. This excerpt belongs to a sample that is enriched for actives.
No unit in the answer, only the number.

1. GGAAGCUUUGGGAAACAGUTT against Bmp2
-0.226
2. GGUGAGCAUGGACUAUGAUTT against Syt12
-1.09
3. GGUUGGUAGGCUUUGGUGUTT against Notum
0.657

# query: z-score of entry GGUUGUCUUCAACACCAAATT against Lgals7
-0.147

# query: z-score of entry GGCUAUUUCUUUUUAUGCUTT against Ak4
0.911

# query: z-score of entry CGACGAAGUGGUCGGAAUUTT against Cryzl1
2.1

====

- assay.text: Components of the Cytosolic LPS Sensing Pathway: Gene Identification via Genome-wide siRNA Screen;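 also: robust z of the log signal after scaling to non-targeting control siRNA wells of the plate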
- condition.label: RAW264.7 macrophages, IL-1a HTRF, actives lie on both sides, screened at 100 nM (by protocol), cells primed 5 h with Pam3CSK4 first
The whole screen tested about 53,000 sequences, of which about 3,700 (7%) were called active.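 How the source made its calls: active means gene knockdowns whose robust z-score for IL-1 alpha signal is at least 2 or at most -2, so actives lie on both sides; inactive means the rest.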 Only a selection was taken, and actives are over-represented in it overall.
Response enum: active, inactive

1) GGCAUCCUGUUGAAACUGATT against Vezt
inactive
2) GCCGAGGCUGUUGUGUUGATT against Gpaa1
inactive
3) GCUGGAUGGAGGCAAAGCATT against C1ql1
inactive
4) GGCUUAAGCAGACGUGUCATT against Lhx8
active

Each sequence tested received a call. Report the one for GGAUUUGAGUGGUAAUGAATT against Tm2d1 .
active

Each sequence tested received a call. Report the one for GCUUCACUCUCUUCUUUGCTT against Olfr1463 .
active

====

- assay.text: Components of the Cytosolic LPS Sensing Pathway: Gene Identification via Genome-wide siRNA Screen;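 also: robust z of the log signal after scaling to non-targeting control siRNA wells of the plate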
- condition.label: RAW264.7 macrophages, IL-1a HTRF, actives lie on both sides, screened at 100 nM (by protocol), cells primed 5 h with Pam3CSK4 first
Among all 53,000 sequences or so, about 3,700 (7%) were called active. The full list was thinned out, with actives kept by preference.
z-score values for the sequences below.
No unit in the answer, only the number.

Examples with their reported z-score follow.
1. GCAGCUAAAACAAGUUUGATT against Sntg2
-0.565
2. GCUUUUGGACUGAAUCUCATT against 2210016L21Rik
2.78
3. GGAUAAGAAGAUGAGGCAGTT against Mns1
-0.0977

# query: z-score of entry GGUCACAAACAGAUUAAUUTT against Ahcy
-0.404

====

- assay.text: Components of the Cytosolic LPS Sensing Pathway: Gene Identification via Genome-wide siRNA Screen;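 also: robust z of the log signal after scaling to non-targeting control siRNA wells of the plate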
- condition.label: RAW264.7 macrophages, IL-1a HTRF, actives lie on both sides, screened at 100 nM (by protocol), cells primed 5 h with Pam3CSK4 first
- Experimental: Non-canonical inflammasome activation by cytosolic LPS is a critical component of the host response to Gram-negative bacterial infection, however we lack a comprehensive understanding of the cellular processes that control this pathway. […] Lipofectamine RNAiMAX Transfection Reagent ([…]; Invitrogen) was added in […] serum-free, antibiotic-free media to plate wells using a Thermo Scientific Matrix WellMate and Microplate Stacker. […] The plates were read on an EnVision plate reader (PerkinElmer). […]
The campaign covered roughly 53,000 sequences. About 3,700 (7%) were called active. This excerpt belongs to a sample that is enriched for actives.
The threshold is inclusive: z-score of exactly 0.05 counts as 1; values below receive -1.

These recorded examples may help you get a feel for the data.
1. CGUGGGCCUAUGCUUGUCATT against Tsc1
1
2. GCUCUGACCAUCCUUAGCUTT against Olfr938
-1
3. GCAAAGUCCAGUGAACAACTT against Gtse1
-1

Now consider a different sequence.
Confirm if z-score reported for the sequence GGCGAAUUAUUGAAAACGUTT against Actr8 is 0.05 or above.
1

====

- assay.text: Components of the Cytosolic LPS Sensing Pathway: Gene Identification via Genome-wide siRNA Screen;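 also: robust z of the log signal after scaling to non-targeting control siRNA wells of the plate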
- condition.label: RAW264.7 macrophages, IL-1a HTRF, actives lie on both sides, screened at 100 nM (by protocol), cells primed 5 h with Pam3CSK4 first
Hit rate of the full screen: of about 53,000 sequences, about 3,700 (7%) were called active.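 Rule for the calls: active = gene knockdowns whose robust z-score for IL-1 alpha signal is at least 2 or at most -2, so actives lie on both sides; inactive = the rest.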 Shown is part of a subset that was picked to be rich in actives.
Response enum: TRUE = active, FALSE = inactive

1. CUAGAUGCACAGAAUAGCATT against Prm1
FALSE
2. GGUCAAGGAGUUCAUUCUGTT against Matn2
FALSE
3. GCAUCGUUUGUGAGAAUUUTT against Perp
FALSE
4. CCGAAUAGUAGAUAUUAGATT against Zbtb1
FALSE
5. CCGACAAACGCAAGGUGAUTT against Rtl8c
FALSE

Now consider a different sequence.
Each sequence tested received a call. Report the one for GGACUUGAUCAAUGGCUAUTT against Wscd1 .
FALSE

Reference source: PubChem BioAssay AID1508600
